# Tested on: central memory T cells
# test_description: Cultured IFN-γ ELISPOT after 10-day in vitro stimulation of PBMC, phase 1/2 colon cancer trial of OSE-2101
# Assay type: in vivo, human
# condition_set: colon patient 603, Week 9
property: net SFC of vaccine positive CTL responses

biopolymer_sequence	value
KVFGSLAFV [HER2.369L2V9 A]	30.0 SFC per 50,000 cells
SMPPPGTRV [p53.149M2 A]	—
IMIGHLVGV [CEA.691H5 A]	32.7 SFC per 50,000 cells
KVAEIVHFL [MAGE3.112I5 A]	—
YLSGADLNL [CEA.605D6 A]	114.7 SFC per 50,000 cells
KLBPVQLWV [p53.139L2B3 A]	85.3 SFC per 50,000 cells
YLQLVFGIEV [MAGE2.157 WT]	320.0 SFC per 50,000 cells
LLTFWNPPV [CEA.24V9 A]	63.0 SFC per 50,000 cells

----------
# Test system: central memory T cells
# test_description: Cultured IFN-γ ELISPOT after 10-day in vitro stimulation of PBMC, phase 1/2 colon cancer trial of OSE-2101
# Type: in vivo, human
# Parameters: key: —, indicates SFC response did not meet criteria and vaccine response was negative
# condition_set: colon patient 551, Week 9
Marks after values point to notes of the source that are not given here.
property: net SFC of vaccine positive CTL responses

biopolymer_sequence	value
KLBPVQLWV [p53.139L2B3 A]	—
IMIGHLVGV [CEA.691H5 A]	92.7 SFC per 50,000 cells
YLSGADLNL [CEA.605D6 A]	—
KVFGSLAFV [HER2.369L2V9 A]	134.7 SFC per 50,000 cells
KVAEIVHFL [MAGE3.112I5 A]	—
LLTFWNPPV [CEA.24V9 A]	42.7^d) SFC per 50,000 cells
YLQLVFGIEV [MAGE2.157 WT]	—
SMPPPGTRV [p53.149M2 A]	—

----------
Items are presented alongside their recorded patients with positive CTL/central memory T cell response / patients tested.
# Tested on: central memory T cells
# test_description: Central memory T cell cultured ELISPOT, phase 2 trial in advanced NSCLC
# Format: in vivo, human
# condition_set: phase 2, month 9
property: patients with positive CTL/central memory T cell response / patients tested

biopolymer_sequence	value
KVFGSLAFV [HER2.369L2V9 A]	2/7
IMIGHLVGV [CEA.691H5 A]	3/7
RLLQETELV [HER2-689-WT]	0/7
YLQLVFGIEV [MAGE2.157 WT]	4/7
LLTFWNPPV [CEA.24V9 A]	4/7
YLSGADLNL [CEA.605D6 A]	1/7
KLBPVQLWV [p53.139L2B3 A]	2/7
SMPPPGTRV [p53.149M2 A]	0/7
KVAEIVHFL [MAGE3.112I5 A]	0/7
